// data source = ChEMBL document CHEMBL1144238

# Tested System: Alpha-2A adrenergic receptor (Homo sapiens, UniProt P08913)
# Sequence (P08913 whole entry): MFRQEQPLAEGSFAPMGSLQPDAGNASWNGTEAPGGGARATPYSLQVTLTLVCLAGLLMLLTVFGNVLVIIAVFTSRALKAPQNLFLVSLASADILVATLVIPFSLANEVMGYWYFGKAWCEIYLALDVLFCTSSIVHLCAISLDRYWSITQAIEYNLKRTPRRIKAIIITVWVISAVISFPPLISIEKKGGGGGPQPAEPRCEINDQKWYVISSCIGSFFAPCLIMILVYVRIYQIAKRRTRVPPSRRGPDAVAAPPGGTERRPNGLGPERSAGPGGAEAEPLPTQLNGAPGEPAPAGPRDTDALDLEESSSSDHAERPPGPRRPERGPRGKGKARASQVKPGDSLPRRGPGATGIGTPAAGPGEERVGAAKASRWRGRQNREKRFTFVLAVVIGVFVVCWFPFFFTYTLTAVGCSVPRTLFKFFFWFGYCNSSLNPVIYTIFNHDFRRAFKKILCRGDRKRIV
# Experimental Protocol: Antagonist activity at human recombinant adrenergic alpha2A receptor expressed in CHO cells assessed as inhibition of NE-induced calcium mobilization by FLIPR
# Assay type: functional, cell-based
Can you tell me pKi for the items I'm about to list?
Worth noting: pKi values are minus log10 of concentrations stated in mol/L.

stdin: What pKi value was documented for this molecule, CC(C)(C)Nc1ncccc1C(=O)NCCN1CCCN(CC2COc3ccccc3O2)CC1 (stereo not given) ?
stdout: 6.44

stdin: Entry c1ccc(CN2CCN(CC3CCc4ccccc4O3)CC2)cc1 (stereo not given) : reported pKi = ?
stdout: 6.78

stdin: Request the reported pKi associated with c1ccc(Oc2ncccc2COCCN2CCCN(CC3COc4ccccc4O3)CC2)cc1 (stereo not given)
stdout: 6.56

stdin: Entry under review: CCCCOc1ncccc1C(=O)NCCN1CCCN(CC2COc3ccccc3O2)CC1 (stereo not given) . Reported pKi?
stdout: 7.13

stdin: Returns the measured pKi for the input molecule. Input: c1ccc(Oc2ncccc2-c2noc(CN3CCCN(CC4COc5ccccc5O4)CC3)n2)cc1 (stereo not given)
stdout: 7.81

stdin: Could you share which pKi value was measured for COc1ccccc1N1CCN(CC2COc3ccccc3O2)CC1 (stereo not given) ?
stdout: 6.78

stdin: Endpoint output: pKi of O=C(NCCN1CCCN(CC2COc3ccccc3O2)CC1)c1cccnc1Oc1ccccc1 (stereo not given) . Value?
stdout: 6.32

stdin: Look at this molecule and give its reported pKi. N#Cc1cccc(Oc2ncccc2C(=O)NCCN2CCCN(CC3COc4ccccc4O3)CC2)c1 (stereo not given)
stdout: 6.30

stdin: Any idea what pKi was measured for CCCCOc1cccc(C(=O)NCCN2CCCN(CC3COc4ccccc4O3)CC2)n1 (stereo not given) ?
stdout: 7.32
